// provenance: ChEMBL document CHEMBL4765461

# TEST DETAILS: Inhibition of Cytochrome b-c1 complex I304M/R306K double mutant in Rhodobacter capsulatus MT-RBC1
RECORDED METRIC: pIC50
The value called pIC50 is obtained by taking minus log10 of the concentration in mol/L.

Provide pIC50 value for the following compound: O=C1C(O)=C([C@H]2CC[C@H](c3ccc(Cl)cc3)CC2)C(=O)c2ccccc21
8.00

----------
# TEST DETAILS: Ratio of drug level in ICR mouse brain to plasma at 30 mg/kg, po by LC-MS analysis
# Format: ADME, organism-based
# TEST SETTINGS: read-out: BPR
RECORDED METRIC: Kp
Provide a numeric answer; units are not to be included.

Provide Kp value for the following compound: CN(C)C(=N)NC(=N)N
0.1

Provide Kp value for the following compound: N=C(NC(=N)N1CCCC1)Nc1ccc(OC(F)(F)F)cc1
0.37
